biological target: CYP1A1 (Homo sapiens, UniProt P04798)
Sequence (P04798 whole entry): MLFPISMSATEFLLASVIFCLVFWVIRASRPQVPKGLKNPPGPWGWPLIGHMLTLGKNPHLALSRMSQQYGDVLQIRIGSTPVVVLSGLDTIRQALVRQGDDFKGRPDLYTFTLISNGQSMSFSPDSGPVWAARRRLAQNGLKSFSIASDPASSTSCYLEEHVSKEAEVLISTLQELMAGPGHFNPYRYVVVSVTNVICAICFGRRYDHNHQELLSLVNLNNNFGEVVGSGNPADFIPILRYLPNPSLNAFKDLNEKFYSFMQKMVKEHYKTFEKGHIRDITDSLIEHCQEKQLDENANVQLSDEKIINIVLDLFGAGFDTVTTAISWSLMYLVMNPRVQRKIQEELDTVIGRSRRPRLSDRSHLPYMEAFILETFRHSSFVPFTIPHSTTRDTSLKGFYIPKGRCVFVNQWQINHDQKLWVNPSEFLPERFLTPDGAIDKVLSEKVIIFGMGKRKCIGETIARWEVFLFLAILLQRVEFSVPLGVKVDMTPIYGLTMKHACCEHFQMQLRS
MEASURE_NAME: IC50 (µM)
Note: unit µM is implicit; provide only the numeric part.

Req: Observed IC50 on CYP1A1 (Homo sapiens, UniProt P04798) for Oc1cc(O)c2cc(O)c(-c3cc(O)c(O)c(O)c3)[o+]c2c1 [delphinidin] , please.
Resp: 77

Req: Query the reported IC50 for CYP1A1 (Homo sapiens, UniProt P04798); item: Oc1ccc(-c2[o+]c3cc(O)cc(O)c3cc2O)cc1 [pelargonidin]
Resp: 33
